SYSTEM_NAME: Toll-like receptor 4 (Homo sapiens)
Sequence (O00206 whole entry): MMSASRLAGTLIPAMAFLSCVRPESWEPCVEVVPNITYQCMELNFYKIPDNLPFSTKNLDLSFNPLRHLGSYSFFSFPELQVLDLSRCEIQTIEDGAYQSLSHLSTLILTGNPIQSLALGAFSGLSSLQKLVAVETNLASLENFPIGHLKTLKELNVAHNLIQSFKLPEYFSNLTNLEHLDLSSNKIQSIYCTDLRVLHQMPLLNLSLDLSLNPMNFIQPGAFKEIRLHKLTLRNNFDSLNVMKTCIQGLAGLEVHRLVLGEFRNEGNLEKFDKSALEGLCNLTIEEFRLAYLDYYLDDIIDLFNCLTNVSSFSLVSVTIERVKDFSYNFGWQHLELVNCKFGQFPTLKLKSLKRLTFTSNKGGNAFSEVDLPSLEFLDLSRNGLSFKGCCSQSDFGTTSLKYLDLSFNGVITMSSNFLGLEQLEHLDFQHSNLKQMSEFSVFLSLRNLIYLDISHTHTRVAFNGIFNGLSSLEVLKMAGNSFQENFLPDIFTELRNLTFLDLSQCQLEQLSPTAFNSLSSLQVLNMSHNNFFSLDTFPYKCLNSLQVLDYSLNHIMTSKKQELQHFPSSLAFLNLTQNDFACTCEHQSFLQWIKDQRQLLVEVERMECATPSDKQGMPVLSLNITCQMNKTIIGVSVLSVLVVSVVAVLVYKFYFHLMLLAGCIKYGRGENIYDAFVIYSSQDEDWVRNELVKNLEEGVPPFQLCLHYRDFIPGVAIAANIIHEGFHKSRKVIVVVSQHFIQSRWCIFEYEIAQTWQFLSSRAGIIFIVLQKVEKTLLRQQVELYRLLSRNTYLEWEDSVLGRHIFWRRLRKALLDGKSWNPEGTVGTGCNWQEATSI
PROCEDURE_DETAILS: Antagonist activity at human TLR4 expressed in HE293 cells by ELAM1-luciferase reporter gene assay
Assay type: functional, cell-based, HEK293
QUANTITY: IC50 (µM)
Return type: number; implicit unit µM.

What does the data say about its IC50? Entry: Nc1ccccc1Oc1ccc2c(N)nsc2c1
7

---

SYSTEM_NAME: Toll-like receptor 9 (Homo sapiens, UniProt Q9NR96)
Sequence (Q9NR96 whole entry): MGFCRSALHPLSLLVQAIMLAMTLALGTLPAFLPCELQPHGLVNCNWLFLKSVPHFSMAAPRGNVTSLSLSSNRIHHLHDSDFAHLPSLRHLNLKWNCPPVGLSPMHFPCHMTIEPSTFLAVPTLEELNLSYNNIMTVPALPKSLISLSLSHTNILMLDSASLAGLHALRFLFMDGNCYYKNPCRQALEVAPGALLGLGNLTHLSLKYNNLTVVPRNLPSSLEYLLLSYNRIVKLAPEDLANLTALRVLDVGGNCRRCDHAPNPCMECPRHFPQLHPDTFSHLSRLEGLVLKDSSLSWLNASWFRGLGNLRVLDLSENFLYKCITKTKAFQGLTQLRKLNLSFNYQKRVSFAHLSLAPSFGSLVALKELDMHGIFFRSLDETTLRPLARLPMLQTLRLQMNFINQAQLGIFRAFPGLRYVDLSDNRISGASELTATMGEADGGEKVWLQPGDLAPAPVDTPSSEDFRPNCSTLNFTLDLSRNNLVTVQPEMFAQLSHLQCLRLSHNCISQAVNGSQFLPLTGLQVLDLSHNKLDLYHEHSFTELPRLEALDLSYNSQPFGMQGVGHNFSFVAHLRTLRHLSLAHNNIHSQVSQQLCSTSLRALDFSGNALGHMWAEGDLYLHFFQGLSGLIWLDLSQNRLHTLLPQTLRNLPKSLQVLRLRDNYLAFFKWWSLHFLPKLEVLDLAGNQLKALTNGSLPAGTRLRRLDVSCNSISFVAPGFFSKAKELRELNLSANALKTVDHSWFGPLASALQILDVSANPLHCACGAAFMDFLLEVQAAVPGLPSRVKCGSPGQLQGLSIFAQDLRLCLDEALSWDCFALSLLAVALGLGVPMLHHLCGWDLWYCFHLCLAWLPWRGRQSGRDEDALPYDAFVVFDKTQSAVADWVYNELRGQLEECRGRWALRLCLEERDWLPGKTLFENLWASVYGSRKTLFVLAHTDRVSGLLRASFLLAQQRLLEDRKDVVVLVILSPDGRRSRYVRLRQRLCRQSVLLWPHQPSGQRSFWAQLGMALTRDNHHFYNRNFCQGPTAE
PROCEDURE_DETAILS: Antagonist activity at human TLR9 expressed in HEK293 cells assessed as blockade of CpG oligonucleotide-induced immune response by NF-kappaB luciferase reporter gene assay
QUANTITY: IC50 (nM)
Return type: number; implicit unit nM.

What does the data say about its IC50? Entry: CN(C)CCNc1nc(-c2ccc(N3CCN(C)CC3)cc2)nc2ccccc12
3
